- Tested on: MCF7
- procedure_summary: Cytotoxicity against human MCF7 cells assessed as reduction in cell viability incubated for 48 hrs by ATP based luminometry
- Assay type: functional
- settings: MCF7, 48 h
reported_endpoint: IC50 (µM)
Could you give me the number in µM? Just the number is fine.

Data request: # return recorded IC50 for entry "CC1(C)[C@@H](O)CC[C@]2(C)[C@H]3C(=O)C=C4[C@@H]5C[C@@](C)(C(=O)O)CC[C@]5(C)CC[C@@]4(C)[C@]3(C)CC[C@@H]12"
Data returned: 32.6

Data request: # return recorded IC50 for entry "COC(=O)[C@@]1(C)CC[C@]2(C)CC[C@]3(C)[C@H](C(=O)C=C4[C@@]5(C)C=C(C#N)C(=O)C(C)(C)[C@@H]5CC[C@]43C)[C@@H]2C1"
Data returned: 4.22

This collection of values is drawn from ChEMBL document CHEMBL4680330.
